These measurements were taken from PubChem BioAssay (NCI).

# System: LXFL 529 NSCLC
# method notes: NCI tumour cell line growth inhibition, 48 h
Measured TGI, listed per entry.
parameter measured: TGI (µM)

Cc1cc(C)nc(NS(=O)(=O)c2ccc(Nc3c4ccccc4nc4c(C(=O)Nc5ccc(S(=O)(=O)Nc6cc(C)on6)cc5)ccc(Cl)c34)cc2)n1 | 42.4
CC(C)(CN1CCOCC1)C(=O)/C=C/c1ccc(/C=C/C(=O)C(C)(C)CN2CCOCC2)cc1 | 2.59
COc1cccc2c1C(=O)c1c(O)c3c(c(O)c1C2=O)C[C@@](O)(C(C)=O)C[C@@H]3OC1CC([N+]([O-])(Cc2ccccc2)Cc2ccccc2)C(O)C(C)O1 (some centres not stated) | 2.31
O=C1C=CC(=O)C2C1Cc1ccccc1C2c1ccccc1 (configuration not stated) | 31.1
COC1=CC(=O)C(Br)=CC1=O | 31.2
